All figures here come from paper PMC5177663.

experiment: in vivo; conditions: C57/Bl6, mouse, po, 1 mg/kg, AUC
Metric: AUC (ng·h/mL)
Give bare numbers, in ng·h/mL.

For the compound shown here, NC(=O)c1ccc(OCCCN2CC3CCCC3C2)cc1 (stereo not shown) , give the reported AUC.
92.4

====

test: in vivo; conditions: C57/Bl6, mouse, po, 0.1 mg/kg, Cmax
Metric: Cmax (ng/mL)
Give bare numbers, in ng/mL.

For the compound shown here, NC(=O)c1ccc(OCCCN2CC3CCCC3C2)cc1 (stereo not shown) , give the reported Cmax.
3.04

====

test: in vivo; settings: C57/Bl6, mouse, po, 0.1 mg/kg, AUC
Metric: AUC (ng·h/mL)
One number for each entry, in ng·h/mL.

For the compound shown here, NC(=O)c1ccc(OCCCN2CC3CCCC3C2)cc1 (stereo not shown) , give the reported AUC.
9.56
